Taken from patent US10357481B2.

- assayedTarget: human PDE2A1 (Homo sapiens)
- Construct: GST; purchased BPS Bioscience (San Diego, Calif.) 60020; host or cells: insect cells
- Sequence (O00408 1-920 isoform O00408-2): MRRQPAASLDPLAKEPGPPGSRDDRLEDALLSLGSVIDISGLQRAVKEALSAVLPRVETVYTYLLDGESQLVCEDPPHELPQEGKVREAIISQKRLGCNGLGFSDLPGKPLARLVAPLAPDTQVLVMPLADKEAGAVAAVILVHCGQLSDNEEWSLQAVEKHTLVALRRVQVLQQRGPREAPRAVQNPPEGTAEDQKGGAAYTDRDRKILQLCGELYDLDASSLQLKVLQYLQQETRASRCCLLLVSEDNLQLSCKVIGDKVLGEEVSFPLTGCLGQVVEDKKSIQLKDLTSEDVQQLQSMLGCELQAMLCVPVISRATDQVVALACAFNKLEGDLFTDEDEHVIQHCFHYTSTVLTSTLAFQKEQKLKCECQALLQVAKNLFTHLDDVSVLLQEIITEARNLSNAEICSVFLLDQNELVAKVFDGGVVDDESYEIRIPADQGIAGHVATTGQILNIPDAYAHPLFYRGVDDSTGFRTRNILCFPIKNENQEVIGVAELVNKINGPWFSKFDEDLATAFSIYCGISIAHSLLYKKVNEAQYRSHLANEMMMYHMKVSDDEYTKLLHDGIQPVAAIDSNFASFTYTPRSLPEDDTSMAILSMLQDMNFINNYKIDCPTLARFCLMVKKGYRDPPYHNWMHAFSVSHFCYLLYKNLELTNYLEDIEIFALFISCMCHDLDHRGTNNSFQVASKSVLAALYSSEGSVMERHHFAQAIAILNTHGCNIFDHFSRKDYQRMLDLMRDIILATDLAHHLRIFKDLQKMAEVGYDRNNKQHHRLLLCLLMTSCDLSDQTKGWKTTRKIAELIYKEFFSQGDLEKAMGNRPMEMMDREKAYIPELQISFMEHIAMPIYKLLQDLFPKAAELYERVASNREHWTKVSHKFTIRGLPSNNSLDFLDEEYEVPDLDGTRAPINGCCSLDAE
- experimentalDetails: IMAP FP PDE selectivity panel, human PDE2A1
- Format: biochemical
- runConditions: Lab B; read-out: Human PDE2 Ki (nM) Lab B
Entries and their log10(Ki) values follow.
Hi team, quick reminder: these entries are log10 of Ki (nM).

Example entries and their recorded answers appear below.
compound	log10(Ki)
Cc1cc(N[C@H](C)c2ccc(C(F)(F)F)cc2)n2ncnc2n1	2.24
Cc1cc(NC(c2ccc(C(F)(F)F)cn2)C(C)C)n2ncnc2n1 (single isomer, unassigned) [Example 212]	2.49
Cc1cc(N[C@H](C)c2cc(F)c(C(F)(F)F)cc2F)n2ncnc2n1	2.68
Cc1cc(N[C@H](CC(C)(C)O)c2ccc(C(F)(F)F)c(F)c2)n2ncnc2n1	2.88
CCc1cc(NC2(c3ccc(C(F)(F)F)c(F)c3)CC2)n2ncnc2n1	1.54
Cc1cc(NC2(c3ccc(C(C)(C)C)cc3)CC2)n2ncnc2n1	1.91

Challenge: Reported log10(Ki), compound Cc1cc(NC(c2ccc3ccccc3c2)C(C)(C)O)n2ncnc2n1 (single isomer, unassigned) [Example 123] : ____
Response given: 1.54

Challenge: Reported log10(Ki), compound Cc1cc(NC(c2ccc(OC(F)(F)F)c(F)c2)C(C)(C)O)n2nc(C)nc2n1 (single isomer, unassigned) [Example 133] : ____
Response given: 1.26
